All figures here come from patent US20100105655A1.

target.or.system: IGFR kinase (Homo sapiens, UniProt P08069)
Construct: purchased Millipore
Sequence (P08069 31-1367): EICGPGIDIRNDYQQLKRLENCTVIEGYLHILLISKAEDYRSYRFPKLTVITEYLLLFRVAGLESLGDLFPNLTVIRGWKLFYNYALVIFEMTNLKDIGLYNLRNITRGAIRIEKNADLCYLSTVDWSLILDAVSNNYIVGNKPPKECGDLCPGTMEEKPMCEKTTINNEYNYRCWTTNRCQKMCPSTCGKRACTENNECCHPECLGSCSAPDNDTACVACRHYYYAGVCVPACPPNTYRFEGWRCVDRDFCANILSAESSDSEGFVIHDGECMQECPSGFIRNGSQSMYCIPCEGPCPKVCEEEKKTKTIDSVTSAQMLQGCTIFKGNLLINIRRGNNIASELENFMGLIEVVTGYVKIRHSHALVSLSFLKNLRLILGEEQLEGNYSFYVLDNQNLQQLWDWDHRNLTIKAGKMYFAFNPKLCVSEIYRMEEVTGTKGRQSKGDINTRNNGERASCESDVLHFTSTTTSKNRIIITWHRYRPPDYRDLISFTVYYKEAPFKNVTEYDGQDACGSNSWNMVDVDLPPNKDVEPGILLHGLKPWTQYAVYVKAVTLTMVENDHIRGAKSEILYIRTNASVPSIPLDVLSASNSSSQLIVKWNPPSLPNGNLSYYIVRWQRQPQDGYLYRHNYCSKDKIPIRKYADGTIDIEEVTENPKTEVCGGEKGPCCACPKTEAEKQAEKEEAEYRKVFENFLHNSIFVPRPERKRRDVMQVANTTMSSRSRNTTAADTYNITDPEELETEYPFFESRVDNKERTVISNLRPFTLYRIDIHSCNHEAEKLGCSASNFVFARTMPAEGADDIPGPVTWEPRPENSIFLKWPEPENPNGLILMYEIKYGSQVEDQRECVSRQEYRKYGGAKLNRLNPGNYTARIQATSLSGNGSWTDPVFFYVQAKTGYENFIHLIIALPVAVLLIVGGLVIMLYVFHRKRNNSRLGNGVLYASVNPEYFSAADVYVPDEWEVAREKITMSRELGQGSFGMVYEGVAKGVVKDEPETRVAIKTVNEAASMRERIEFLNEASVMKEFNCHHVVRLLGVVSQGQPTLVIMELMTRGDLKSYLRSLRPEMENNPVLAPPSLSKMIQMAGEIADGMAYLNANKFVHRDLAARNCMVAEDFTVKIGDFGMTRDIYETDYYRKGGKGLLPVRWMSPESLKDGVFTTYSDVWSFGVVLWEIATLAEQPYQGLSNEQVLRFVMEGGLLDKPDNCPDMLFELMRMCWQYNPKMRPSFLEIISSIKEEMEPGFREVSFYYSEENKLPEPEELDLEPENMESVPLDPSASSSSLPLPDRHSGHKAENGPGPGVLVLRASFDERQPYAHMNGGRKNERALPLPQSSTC
assay.overview: Enzyme assay (c), IGFR kinase, Caliper LabChip
Type: biochemical
settings: 30 nM IGFR kinase, 6 uM ATP, 3 uM peptide mix; read-out: IGFR IC50
test.readout: pIC50
Note: pIC50 values are expressed as the negative base-10 logarithm of concentration in M.

Worked examples, 5 compounds total:
[[record]]
compound = "COc1ccc(N2CCN(C(=O)CN(C)C)CC2)cc1Nc1ncc(Cl)c(-c2cnn3ccccc23)n1"
target_or_system = "IGFR kinase (Homo sapiens, UniProt P08069)"
readout_value = 7.60

[[record]]
compound = "COc1cc(N2CCN(C(=O)[C@@H]3CCCN3)CC2)ccc1Nc1ncc(Cl)c(-c2cnc3ccccn23)n1"
target_or_system = "IGFR kinase (Homo sapiens, UniProt P08069)"
readout_value = 8.05

[[record]]
compound = "COc1cc(N2CCN(C(C)=O)C(CO)C2)ccc1Nc1ncc(Cl)c(-c2cnc3ccccn23)n1 (stereo not shown)"
target_or_system = "IGFR kinase (Homo sapiens, UniProt P08069)"
readout_value = 7.68

[[record]]
compound = "COc1cc(N2CCN(C(=O)[C@@H](C)N)CC2)ccc1Nc1ncc(Cl)c(-c2cnc3ccc(F)cn23)n1"
target_or_system = "IGFR kinase (Homo sapiens, UniProt P08069)"
readout_value = 8.15

[[record]]
compound = "COc1cc(N2CCCC2C(=O)N2CCOCC2)ccc1Nc1ncc(Cl)c(-c2cnc3ccccn23)n1 (stereo not shown)"
target_or_system = "IGFR kinase (Homo sapiens, UniProt P08069)"
readout_value = 7.27


Enquiry: # lookup: pIC50 of COc1cc(N2CCN(CCO)[C@@H](C)C2)ccc1Nc1ncc(F)c(-c2cnc3ccccn23)n1
Return: 6.68

Enquiry: Form field: reported pIC50 of COc1cc(N2CCN(C(C)(C)CO)CC2)ccc1Nc1ncc(C)c(-c2cnc3ccc(F)cn23)n1
Return: 7.96

###

target.or.system: IGFR kinase (Homo sapiens, UniProt P08069)
Construct: purchased Millipore
assay.overview: Enzyme assay (c), IGFR kinase, Caliper LabChip
Assay type: biochemical
settings: 30 nM IGFR kinase, 6 uM ATP, 3 uM peptide mix; read-out: IGFR IC50
test.readout: log10 IC50 (log10 of the value in nM)
Scale: log10; quantity: IC50; unit before log: nM

[[record]]
compound = "COCCCNCc1ccc(Nc2ncc(Cl)c(-c3cnc4ccccn34)n2)c(OC)c1 [Example 21.9]"
test_readout = "log10 IC50"
readout_value = 1.23

[[record]]
compound = "COc1cc(N2CCN(C(=O)CO)CC2)ccc1Nc1ncc(Cl)c(-c2cnc3cc(C)ccn23)n1 [Example 251]"
test_readout = "log10 IC50"
readout_value = 0.95

[[record]]
compound = "COc1cc(N2CCN(CCO)CC2)ccc1Nc1ncc(C#N)c(-c2cnc3ccccn23)n1 [Example 116]"
test_readout = "log10 IC50"
readout_value = 1.11

[[record]]
compound = "COc1cc(N2CCNCC2=O)ccc1Nc1ncc(Cl)c(-c2cnc3c(F)cccn23)n1 [Example 224]"
test_readout = "log10 IC50"
readout_value = 0.48

[[record]]
compound = "COc1cc(C2CCN(C(C)=O)CC2)ccc1Nc1ncc(C)c(-c2cnc3c(F)cccn23)n1 [Example 196]"
test_readout = "log10 IC50"
readout_value = 1.11


Enquiry: Look up log10 IC50 for this compound: COc1cc(N2CCN(C(=O)[C@@H](C)O)CC2)ccc1Nc1ncc(Cl)c(-c2cnn3ccccc23)n1 [Example 131]
Return: 0.48

Enquiry: Item COc1cc(N2CCN(C(=O)[C@@H](C)O)CC2)ccc1Nc1ncc(Cl)c(-c2cnc3c(F)cccn23)n1 [Example 178] has what recorded log10 IC50?
Return: 1.18

Enquiry: So what does the record say about log10 IC50 for COc1cc(N2CCN(CC(=O)N3CCOCC3)CC2)ccc1Nc1ncc(Cl)c(-c2cnc3ccccn23)n1 [Example 3.3] ?
Return: 1.04

Enquiry: Value lookup for log10 IC50; key = COc1cc(OC[C@H]2CCCN2)ccc1Nc1ncc(C)c(-c2cnc3ccccn23)n1 [Example 102]
Return: 1.73

Enquiry: What measured log10 IC50 goes with COCC(=O)N1CCN(c2ccc(Nc3ncc(Cl)c(-c4cnc5ccccn45)n3)c(OC)c2)CC1 [Example 39] ?
Return: 1.08

Enquiry: # get_value(readout='log10 IC50', item= COc1cc(N2CCN(C(=O)[C@@H](N)CCO)CC2)ccc1Nc1ncc(Cl)c(-c2cnc3ccccn23)n1 [Example 24.13] )
Return: 0.70

Enquiry: So what does the record say about log10 IC50 for COc1cc(N2CCN(C(C)=O)CC2)ccc1Nc1ncc(Cl)c(-c2cnc3cc(CN4CCOCC4)ccn23)n1 [Example 187] ?
Return: 1.63

Enquiry: # query: log10 IC50 of entry COc1cc(OC2CN(CCO)C2)ccc1Nc1ncc(Cl)c(-c2cnc3ccccn23)n1 [Example 64]
Return: 1.28

Enquiry: Recorded log10 IC50 for COc1cc(N2CCN(S(=O)(=O)N(C)C)CC2)ccc1Nc1ncc(F)c(-c2cnc3ccccn23)n1 [Example 74] , please?
Return: 1.62

###

target.or.system: IGFR kinase (Homo sapiens, UniProt P08069)
Construct: purchased Millipore
assay.overview: Enzyme assay (c), IGFR kinase, Caliper LabChip
Type: biochemical
settings: 30 nM IGFR kinase, 6 uM ATP, 3 uM peptide mix; read-out: IGFR IC50
Listed compounds paired with reported pIC50
# pIC50 = -log10(concentration in molar units)

Sample records with pIC50:
[[record]]
compound_structure = "COc1ccc(C2CCNCC2)cc1Nc1ncc(F)c(-c2cnc3ccccn23)n1"
readout_value = 7.38

[[record]]
compound_structure = "COc1cc(CC(=O)N2CC[C@H](O)C2)ccc1Nc1ncc(Cl)c(-c2cnc3ccccn23)n1"
readout_value = 7.36

[[record]]
compound_structure = "COc1cc(N2CCN(C(C)(C)CO)CC2)ccc1Nc1ncc(C)c(-c2cnc3cc(C)ccn23)n1"
readout_value = 7.41

[[record]]
compound_structure = "COc1cc(N2CCN(C(C)=O)CC2)ccc1Nc1ncc(F)c(-c2cnc3ccccn23)n1"
readout_value = 7.02

[[record]]
compound_structure = "COc1cc(C2CCNCC2)ccc1Nc1ncc(C)c(-c2cnn3ccccc23)n1"
readout_value = 8.70


Enquiry: Quick check: pIC50 of COc1cc(N2CCOCC2)ccc1Nc1ncc(C)c(-c2cnc3ccccn23)n1 ?
Return: 7.24

Enquiry: Which pIC50 is listed for COc1ccc(N2CC3CNCC(C2)O3)cc1Nc1ncc(Cl)c(-c2cnn3ccccc23)n1 ?
Return: 7.02

Enquiry: May I ask what pIC50 has been recorded for CCOc1cc(N2CCN(C)CC2)ccc1Nc1ncc(Br)c(-c2cnc3ccccn23)n1 ?
Return: 8.10

###

Catalogue of IC50 readings, one per entry.
target.or.system: IGFR kinase (Homo sapiens, UniProt P08069)
Construct: purchased Millipore
assay.overview: Enzyme assay (c), IGFR kinase, Caliper LabChip
Format: biochemical
settings: 30 nM IGFR kinase, 6 uM ATP, 3 uM peptide mix; read-out: IGFR IC50
Give the value in nM but do not write nM after it.

See these solved cases before continuing.
[[record]]
compound_structure = "COc1cc(N2C[C@@H](C)N(C(C)=O)C[C@@H]2C)ccc1Nc1ncc(Cl)c(-c2cnc3ccccn23)n1"
value_units = "nM"
readout_value = 10

[[record]]
compound_structure = "COc1cc(C2CCN(C(=O)[C@@H](C)O)CC2)ccc1Nc1ncc(Cl)c(-c2cnc3ccccn23)n1"
value_units = "nM"
readout_value = 6

[[record]]
compound_structure = "COc1cc(N2CCN(CCO)CC2)ccc1Nc1ncc(F)c(-c2cnc3ccccn23)n1"
value_units = "nM"
readout_value = 30

[[record]]
compound_structure = "COc1cc(N2CCN(C(C)(C)CO)CC2)ccc1Nc1ncc(C)c(-c2cnn3ccccc23)n1"
value_units = "nM"
readout_value = 20

[[record]]
compound_structure = "CCNCC(=O)N1CCN(c2ccc(Nc3ncc(Cl)c(-c4cnc5ccccn45)n3)c(OC)c2)CC1"
value_units = "nM"
readout_value = 15


Enquiry: Which IC50 reading was recorded for the compound COc1cc(CN(C)CCO)ccc1Nc1ncc(Cl)c(-c2cnc3ccccn23)n1 ?
Return: 37

Enquiry: Which IC50 is listed for COc1cc(N2CCN(C(C)=O)CC2)ccc1Nc1ncc(OC)c(-c2cnc3ccccn23)n1 ?
Return: 90

Enquiry: Item under review: COc1cc(N2CCN(C(=O)CN3CCOCC3)CC2)ccc1Nc1ncc(Cl)c(-c2cnc3ccccn23)n1 . Reported IC50?
Return: 9

###

Entries annotated with measured pIC50
target.or.system: IGFR kinase (Homo sapiens, UniProt P08069)
Construct: purchased Millipore
assay.overview: Enzyme assay (c), IGFR kinase, Caliper LabChip
Type: biochemical
settings: 30 nM IGFR kinase, 6 uM ATP, 3 uM peptide mix; read-out: IGFR IC50
// pIC50 here means minus log10 of the molar concentration (mol/L)

[[record]]
compound_structure = "COc1cc(C2CCN(C(C)=O)CC2)ccc1Nc1ncc(C(F)(F)F)c(-c2cnc3ccccn23)n1"
test_readout = "pIC50"
readout_value = 7.85

[[record]]
compound_structure = "COc1cc(N(C)CC(=O)N(C)C)ccc1Nc1ncc(Cl)c(-c2cnc3c(F)cccn23)n1"
test_readout = "pIC50"
readout_value = 6.89

[[record]]
compound_structure = "COc1cc(N2CCN(CCO)CC2)ccc1Nc1ncc(Cl)c(-c2cnn3ccccc23)n1"
test_readout = "pIC50"
readout_value = 8.30


Enquiry: Please report the recorded pIC50 for COc1cc(CC(=O)N2CCN(CCO)CC2)ccc1Nc1ncc(Cl)c(-c2cnc3ccccn23)n1 .
Return: 7.51

Enquiry: Quick check: pIC50 of COc1cc(N2CCN(C[C@@H](O)CO)CC2)ccc1Nc1ncc(C)c(-c2cnc3ccccn23)n1 ?
Return: 7.57

Enquiry: Which pIC50 value is on record for Cc1ccc(N2CC[C@H](N(C)C)C2)cc1Nc1ncc(Cl)c(-c2cnc3ccccn23)n1 ?
Return: 7.52

Enquiry: // pIC50 lookup, key: COc1cc(C2CCN(C(=O)[C@H](C)O)CC2)ccc1Nc1ncc(Cl)c(-c2cnc3ccccn23)n1
Return: 7.85

Enquiry: Entry COc1cc(N2CCN(C(C)=O)CC2)ccc1Nc1ncc(Cl)c(-c2cnc3cc(CN(C)C)ccn23)n1 has what pIC50?
Return: 6.77
